Measured metric: melting point

Could you please provide reported melting point for COc1ccc(CCCC(=O)NC(NC(=NC#N)Nc2cccnc2C)C(C)(C)C)cc1 (configuration not stated) ? Thanks!
65 to 68 °C

Answer with the recorded melting point of `O=C(O)CCC(=O)c1cccc(-n2ccnc2)c1` only.
140 to 142 °C

Output measured melting point for this item: CCCc1c2c(cc3c1OC(O)(C(=O)OCC)CC3=O)CCCC2 (configuration not stated)
126 to 128 °C

Tell me measured melting point for COC(C)c1cccc2[nH]c3cnc(C(=O)OC(C)C)c(C)c3c12 (configuration not stated) please.
153 to 154 °C

Hello, please tell me recorded melting point for this one: `O=C(Cc1ccc(F)cc1)Nc1ccc(-n2nc(C3CC3)cc2C2CC2)cc1`
141 to 148 °C

Output measured melting point for this item: CN(C)C1CCN(Cc2ccc(COc3cccc4c3CN(C3CCC(=O)NC3=O)C4=O)cc2)CC1 (configuration not stated)
209 to 211 °C

Answer with reported melting point of `CCOc1ccc(C(=O)Nc2ccccc2)cc1NC(=S)Nc1cc(Cl)cc(Cl)c1`
201 to 202 °C

Give recorded melting point. `CN1CCC(=O)C(=C2SC=CS2)C1=O`
148 to 153 °C

Determine its reported melting point: `CCCCc1cn(-c2cccn2CC)c(=O)n1Cc1ccc(-c2ccccc2-c2nnn[nH]2)nc1`
174 to 175 °C

Answer with reported melting point of `Cc1c(Cc2cccc(C(F)(F)F)c2)oc2cccc(-c3cccc(C(=O)NCCC#N)c3)c12`
108 to 109 °C

Item `CCOC(=O)c1c(S(C)(=O)=O)c(N=O)c2ccccn12` : provide melting point
143 to 144 °C

Retrieve melting point measured for `COc1ccc(C(=O)CN2CCc3cc(OCc4ccccc4)c(OC)cc3C2)cc1OC` and print it.
126 to 127 °C

State, in one line, measured melting point of COC(=O)CC1NC(=O)C(Cc2ccccc2)NC1=O (configuration not stated)
217 to 218 °C

Please give the documented melting point of CCCN1NCc2c(C3C(=O)Nc4ccc(Br)cc43)ncnc21 (configuration not stated)
295 to 300 °C

Look up and report measured melting point for this entry: Cc1ccc(C(O[Si](C)(C)C(C)(C)C)C(=O)NO)cc1 (configuration not stated)
109 to 111 °C

Return the recorded melting point value; entry: C=CCC1Oc2ccccc2-c2c(OC)cc3c(c21)C(C)=CC(C)(C)N3 (configuration not stated)
84 to 86 °C

Supply measured melting point of CC(=O)SCC(Cc1ccccc1)C(=O)NC1(C(=O)O)CC1 (configuration not stated) in your reply.
169 to 171 °C

Supply reported melting point belonging to this compound: Cc1cc(SC2=C(O)CC(CCc3ccc(O)cc3)(C3CCCCC3)OC2=O)c(C(C)(C)C)cc1OS(=O)(=O)c1ccccc1 (configuration not stated)
180 °C

State its melting point: `FCCCCNc1cn(-c2cccnc2)nc1Cl`
82 to 83 °C

Answer with the recorded melting point for the compound listed here: CC1CCC(=O)N1c1ccnc(NC(=O)NCc2ccccn2)c1 (configuration not stated)
155 to 160 °C

Consider the compound CCOC(=O)C=Cc1cc(N2C(=O)C3C4CC4CN3C2=O)c(F)cc1Cl (configuration not stated) . State its measured melting point.
123 to 124 °C

Consider the compound `CSc1cc(C)c(O)cc1C` and give its recorded melting point.
98 to 99 °C

Note melting point for the compound shown: CC(C)C1C(=O)NC(c2ccc(NC(=O)CCl)cc2)c2ccccc21 (configuration not stated)
269 to 270 °C

Please look at this compound and report its melting point: `COc1cc(Nc2c(C#N)cnc3cc(C#Cc4ccccn4)sc23)c(Cl)cc1Cl`
237 to 239 °C

Write down melting point measured for item `O=[N+]([O-])c1ccc(Cl)c(F)c1O`
73 °C

Look up and state reported melting point for `CC(C)C[C@H](N)C(=O)NCCCCCNC(=O)OCc1ccccc1`
145 to 146 °C

Please report the measured melting point for `CCN1C(=O)C(C)(C)N=C(c2ccccc2Cl)c2cc([N+](=O)[O-])ccc21`
178 °C
